IC50 for assorted compounds
Molecular target: rh integrin α4β7 (Homo sapiens, UniProt P13612+P26010)
Construct: purchased R&D Systems 5397-A30
Sequence (P13612 34-977 limits assumed): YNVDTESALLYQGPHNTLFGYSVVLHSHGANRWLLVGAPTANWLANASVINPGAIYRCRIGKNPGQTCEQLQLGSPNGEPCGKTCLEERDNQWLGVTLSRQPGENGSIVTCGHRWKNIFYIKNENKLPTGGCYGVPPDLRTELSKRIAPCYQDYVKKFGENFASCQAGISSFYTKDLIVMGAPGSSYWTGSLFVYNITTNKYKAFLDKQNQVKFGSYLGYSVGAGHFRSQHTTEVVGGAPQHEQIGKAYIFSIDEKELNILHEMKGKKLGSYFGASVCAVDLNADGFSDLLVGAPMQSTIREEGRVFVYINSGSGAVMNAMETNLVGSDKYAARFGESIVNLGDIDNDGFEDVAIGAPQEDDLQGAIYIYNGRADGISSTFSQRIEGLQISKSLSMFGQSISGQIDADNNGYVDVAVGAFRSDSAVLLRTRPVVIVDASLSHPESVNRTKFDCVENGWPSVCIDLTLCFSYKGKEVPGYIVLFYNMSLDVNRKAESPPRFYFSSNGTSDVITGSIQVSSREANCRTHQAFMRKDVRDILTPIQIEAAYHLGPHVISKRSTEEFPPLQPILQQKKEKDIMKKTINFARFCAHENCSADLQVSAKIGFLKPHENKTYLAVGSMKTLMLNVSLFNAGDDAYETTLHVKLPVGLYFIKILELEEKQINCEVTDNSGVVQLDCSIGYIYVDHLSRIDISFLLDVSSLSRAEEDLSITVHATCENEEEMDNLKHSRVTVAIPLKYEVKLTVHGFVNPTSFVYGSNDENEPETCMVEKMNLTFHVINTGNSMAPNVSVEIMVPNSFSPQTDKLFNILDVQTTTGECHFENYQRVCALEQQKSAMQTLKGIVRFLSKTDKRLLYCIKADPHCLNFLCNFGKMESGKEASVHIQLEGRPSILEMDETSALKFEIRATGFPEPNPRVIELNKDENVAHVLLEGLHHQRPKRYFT
Sequence (P26010 20-723 limits assumed): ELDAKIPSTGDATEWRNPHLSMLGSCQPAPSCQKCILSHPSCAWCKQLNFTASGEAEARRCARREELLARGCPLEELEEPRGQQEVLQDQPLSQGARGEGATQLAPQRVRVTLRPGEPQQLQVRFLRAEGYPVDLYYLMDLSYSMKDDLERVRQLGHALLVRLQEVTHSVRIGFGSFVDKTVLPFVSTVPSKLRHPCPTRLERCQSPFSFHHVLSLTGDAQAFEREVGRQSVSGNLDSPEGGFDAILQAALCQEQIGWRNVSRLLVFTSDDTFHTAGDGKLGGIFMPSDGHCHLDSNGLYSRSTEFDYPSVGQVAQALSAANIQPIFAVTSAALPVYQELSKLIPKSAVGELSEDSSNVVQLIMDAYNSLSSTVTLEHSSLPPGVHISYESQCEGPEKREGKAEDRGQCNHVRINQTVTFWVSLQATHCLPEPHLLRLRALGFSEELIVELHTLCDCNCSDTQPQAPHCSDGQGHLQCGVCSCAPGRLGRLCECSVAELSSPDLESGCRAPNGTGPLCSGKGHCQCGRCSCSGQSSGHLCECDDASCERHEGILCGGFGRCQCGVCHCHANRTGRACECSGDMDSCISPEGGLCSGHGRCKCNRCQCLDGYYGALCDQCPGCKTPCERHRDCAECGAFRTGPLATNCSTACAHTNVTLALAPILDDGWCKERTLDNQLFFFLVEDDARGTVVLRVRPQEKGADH
Assay: α4β7-MAdCAM Competition ELISA
Assay type: binding
Conditions: Table 3-B, Potency (α4β7); range classes; read-out: α4β7 ELISA IC50
Bridge positions count the residues as written; N and C are the ends. Square brackets hold non-standard residues; d marks the D form. Peptide text beside a SMILES is read from it. 2Nal = N[C@@H](Cc1ccc2ccccc2c1)C(=O)O; NMeR = CN[C@@H](CCCNC(=N)N)C(=O)O; hPhe = N[C@@H](CCc1ccccc1)C(=O)O; Pen = CC(C)(S)[C@H](N)C(=O)O; dNMeK = CN[C@H](CCCCN)C(=O)O

1. CC(=O)N[C@@H]1C(=O)N(C)[C@@H](CCCNC(=N)N)C(=O)N[C@@H](CO)C(=O)N[C@@H](CC(=O)O)C(=O)N[C@@H]([C@@H](C)O)C(=O)N[C@@H](CC(C)C)C(=O)N[C@H](C(=O)N[C@@H](CCc2ccccc2)C(=O)N[C@@H](CCC(=O)O)C(=O)N[C@H](CCCCN)C(N)=O)C(C)(C)SSC1(C)C [compound 19] (Ac-[Pen][NMeR]SDTL[Pen][hPhe]E[dK]-NH2; disulfide 1-7); 10 to 25 nM
2. CC(=O)N[C@@H]1C(=O)N(C)[C@@H](CCCNC(=N)N)C(=O)N[C@@H](CO)C(=O)N[C@@H](CC(=O)O)C(=O)N[C@@H]([C@@H](C)O)C(=O)N[C@@H](CC(C)C)C(=O)N[C@H](C(=O)N[C@@H](CCc2ccccc2)C(=O)N[C@H](CCC(=O)O)C(=O)N[C@H](CCCCN)C(N)=O)C(C)(C)SSC1(C)C [compound 14] (Ac-[Pen][NMeR]SDTL[Pen][hPhe][dE][dK]-NH2; disulfide 1-7); 25 to 50 nM
3. CC(=O)N[C@@H]1C(=O)N(C)[C@@H](CCCNC(=N)N)C(=O)N[C@@H](CO)C(=O)N[C@@H](CC(=O)O)C(=O)N[C@@H]([C@@H](C)O)C(=O)N[C@@H](CC(C)C)C(=O)N[C@H](C(=O)N[C@@H](Cc2c[nH]c3ccccc23)C(=O)N[C@@H](CCC(=O)O)C(=O)N2CCC[C@H]2C(=O)N[C@H](CCCCN)C(N)=O)C(C)(C)SSC1(C)C [compound 49] (Ac-[Pen][NMeR]SDTL[Pen]WEP[dK]-NH2; disulfide 1-7); 10 to 25 nM

Find the recorded IC50 belonging to CC(=O)N[C@@H]1C(=O)N(C)[C@@H](CCCNC(=N)N)C(=O)N[C@@H](CO)C(=O)N[C@@H](CC(=O)O)C(=O)N[C@@H]([C@@H](C)O)C(=O)N[C@@H](CC(C)C)C(=O)N[C@H](C(=O)N[C@@H](Cc2ccc3ccccc3c2)C(=O)N[C@H](CCC(=O)O)C(=O)N(C)[C@H](CCCCN)C(N)=O)C(C)(C)SSC1(C)C [compound 13] (Ac-[Pen][NMeR]SDTL[Pen][2Nal][dE][dNMeK]-NH2; disulfide 1-7) and report it.
10 to 25 nM
